Biological target: recombinant glucosyltransferase domain of C. difficile Toxin B/TcdB (Clostridioides difficile, UniProt P18177)
Construct: 6-His (C); purchased R&D Systems 6246-GT
Sequence (P18177 1-543): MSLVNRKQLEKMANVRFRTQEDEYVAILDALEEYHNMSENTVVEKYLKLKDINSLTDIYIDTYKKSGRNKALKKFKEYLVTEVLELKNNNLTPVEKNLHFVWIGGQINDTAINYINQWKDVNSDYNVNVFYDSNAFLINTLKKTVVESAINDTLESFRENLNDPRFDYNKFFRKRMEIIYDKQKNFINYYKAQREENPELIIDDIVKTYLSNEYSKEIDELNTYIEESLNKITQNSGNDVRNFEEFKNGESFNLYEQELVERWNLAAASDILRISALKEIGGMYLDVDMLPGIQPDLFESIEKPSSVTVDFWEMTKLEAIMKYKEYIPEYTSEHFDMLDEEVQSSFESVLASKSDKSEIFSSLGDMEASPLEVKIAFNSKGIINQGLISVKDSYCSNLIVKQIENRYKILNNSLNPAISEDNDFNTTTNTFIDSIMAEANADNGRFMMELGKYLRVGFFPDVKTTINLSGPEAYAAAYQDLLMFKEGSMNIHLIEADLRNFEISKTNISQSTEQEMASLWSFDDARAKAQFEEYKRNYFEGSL
Experiment: biochemical
pIC50: −log10 of the molar value.
reported-endpoint: pIC50

Solved entries:
>>> df
                                   molecule  reported_endpoint        result
0  COc1ccc2c(c1)NC(=O)[C@@H](Cc1ccc(Cl)c(Cl)c1)N(Cc1ccc(C(=O)Nc3ccccn3)cc1)C2=O              pIC50        > 7.00
1  Cc1ccc(NC(=O)c2ccc(CN3C(=O)c4ccc(NS(C)(=O)=O)cc4NC(=O)[C@H]3C)cc2)nc1 [Example 39a]              pIC50  4.46 to 5.00
2  CN1CCC(C(=O)Nc2cc(CN3C(=O)c4ccc(Cl)cc4NC(=O)[C@H]3Cc3ccccn3)ccc2C(=O)O)CC1 [Example 22i]              pIC50  4.46 to 5.00

Please give the measured pIC50 for this molecule: `Cc1ccccc1C[C@@H]1C(=O)Nc2cc(Cl)ccc2C(=O)N1Cc1ccc(C(=O)O)cc1`
5.00 to 6.00

Now this one: Cc1cnc(NC(=O)c2ccc(S(=O)(=O)N3Cc4ccc(Cl)cc4NC(=O)[C@@H]3Cc3ccccn3)cc2)nc1 [Example 19e]
6.00 to 7.00

Now this one: Cc1cccc(C(=O)Nc2ccc(CN3C(=O)c4ccc(Cl)cc4NC(=O)[C@H]3Cc3ccccn3)cc2)n1 [Example 26d]
5.00 to 6.00

###

Molecular target: C. difficile full-length toxin TcdB (Clostridioides difficile, UniProt P18177)
Construct: C. difficile full-length toxins (TcdA or TcdB)
Sequence (P18177 2-2366 limits assumed): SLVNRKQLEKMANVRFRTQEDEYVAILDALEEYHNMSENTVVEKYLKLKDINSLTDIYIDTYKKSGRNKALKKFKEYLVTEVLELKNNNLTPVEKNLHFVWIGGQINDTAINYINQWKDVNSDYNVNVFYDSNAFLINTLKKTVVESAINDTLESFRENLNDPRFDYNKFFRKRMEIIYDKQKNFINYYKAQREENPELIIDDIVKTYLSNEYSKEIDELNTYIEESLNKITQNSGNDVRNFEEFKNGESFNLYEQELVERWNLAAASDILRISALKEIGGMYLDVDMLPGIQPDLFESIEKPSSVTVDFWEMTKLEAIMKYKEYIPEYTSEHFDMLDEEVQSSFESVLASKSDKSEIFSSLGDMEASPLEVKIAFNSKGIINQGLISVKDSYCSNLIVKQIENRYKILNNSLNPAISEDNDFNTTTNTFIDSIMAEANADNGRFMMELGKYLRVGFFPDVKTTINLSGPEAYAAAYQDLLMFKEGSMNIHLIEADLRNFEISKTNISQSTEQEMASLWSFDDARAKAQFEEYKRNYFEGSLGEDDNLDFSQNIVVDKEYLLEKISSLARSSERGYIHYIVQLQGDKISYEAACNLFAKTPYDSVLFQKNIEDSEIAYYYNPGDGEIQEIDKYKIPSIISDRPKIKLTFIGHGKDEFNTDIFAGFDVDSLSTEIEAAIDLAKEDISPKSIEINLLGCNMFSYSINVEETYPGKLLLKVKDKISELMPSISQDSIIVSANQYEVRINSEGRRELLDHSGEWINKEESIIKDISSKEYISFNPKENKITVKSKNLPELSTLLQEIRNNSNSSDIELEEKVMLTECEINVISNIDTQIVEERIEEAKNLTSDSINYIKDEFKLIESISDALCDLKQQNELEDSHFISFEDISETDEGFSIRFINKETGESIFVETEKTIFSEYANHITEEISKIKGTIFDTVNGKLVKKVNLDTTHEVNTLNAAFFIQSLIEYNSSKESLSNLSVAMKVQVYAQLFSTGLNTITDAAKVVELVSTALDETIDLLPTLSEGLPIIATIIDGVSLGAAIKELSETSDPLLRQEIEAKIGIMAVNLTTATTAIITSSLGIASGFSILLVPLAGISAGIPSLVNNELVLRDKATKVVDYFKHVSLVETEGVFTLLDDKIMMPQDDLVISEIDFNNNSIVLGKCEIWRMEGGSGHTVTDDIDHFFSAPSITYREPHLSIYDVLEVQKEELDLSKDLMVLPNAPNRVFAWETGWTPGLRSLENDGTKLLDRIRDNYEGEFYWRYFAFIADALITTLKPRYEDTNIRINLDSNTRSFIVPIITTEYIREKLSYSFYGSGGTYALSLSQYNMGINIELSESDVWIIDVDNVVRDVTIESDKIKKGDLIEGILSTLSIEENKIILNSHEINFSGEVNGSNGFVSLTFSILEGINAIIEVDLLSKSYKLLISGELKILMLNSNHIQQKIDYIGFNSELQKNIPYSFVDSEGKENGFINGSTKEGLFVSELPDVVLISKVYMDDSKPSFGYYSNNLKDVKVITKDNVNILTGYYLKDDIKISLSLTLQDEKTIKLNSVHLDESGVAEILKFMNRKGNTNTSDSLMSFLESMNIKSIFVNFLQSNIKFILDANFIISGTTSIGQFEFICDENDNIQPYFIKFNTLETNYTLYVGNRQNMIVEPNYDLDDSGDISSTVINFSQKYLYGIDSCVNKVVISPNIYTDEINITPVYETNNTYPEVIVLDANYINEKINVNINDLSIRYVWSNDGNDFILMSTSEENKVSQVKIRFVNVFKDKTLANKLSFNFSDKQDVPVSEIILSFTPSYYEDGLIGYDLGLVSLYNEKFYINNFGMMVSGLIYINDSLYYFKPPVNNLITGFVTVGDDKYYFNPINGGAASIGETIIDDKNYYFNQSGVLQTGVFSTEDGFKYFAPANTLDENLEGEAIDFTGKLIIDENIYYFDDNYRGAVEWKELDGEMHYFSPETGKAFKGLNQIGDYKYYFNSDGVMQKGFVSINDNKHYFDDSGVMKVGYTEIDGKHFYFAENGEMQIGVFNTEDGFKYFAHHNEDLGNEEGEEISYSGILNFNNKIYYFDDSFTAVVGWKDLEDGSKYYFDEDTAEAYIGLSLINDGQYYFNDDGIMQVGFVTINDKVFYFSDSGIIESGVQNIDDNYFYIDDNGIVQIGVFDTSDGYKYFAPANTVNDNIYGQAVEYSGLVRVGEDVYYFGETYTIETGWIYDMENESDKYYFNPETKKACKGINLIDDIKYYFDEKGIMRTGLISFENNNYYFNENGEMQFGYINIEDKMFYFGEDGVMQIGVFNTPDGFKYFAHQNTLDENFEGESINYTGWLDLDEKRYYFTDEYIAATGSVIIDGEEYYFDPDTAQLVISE
Experiment: cell-based
reported-endpoint: IC50

Solved entries:
                                   compound                        measurement_target            result
0  O=C1Nc2cc(Cl)ccc2C(=O)N(Cc2ccc(N3CCc4cccnc4C3=O)cc2)[C@@H]1Cc1ccccn1 [Example 49b]  C. difficile full-length toxin TcdB (Clostridioides difficile, UniProt P18177)  1000 to 10000 nM
1  COc1cnc(NC(=O)c2ccc(CN3C(=O)c4ccc(Cl)cc4NC(=O)[C@H]3Cc3ccccn3)cc2Cl)nc1 [Example 5ab]  C. difficile full-length toxin TcdB (Clostridioides difficile, UniProt P18177)          < 100 nM

Let's switch to this compound now.
Please give the measured IC50 for this compound: COc1cnc(NC(=O)c2ccc(CN3C(=O)c4ccc(Cl)cc4NC(=O)[C@H]3Cc3ccccn3)cc2C)nc1 [Example 5ai]
< 100 nM

###

Target: recombinant glucosyltransferase domain of C. difficile Toxin B/TcdB (Clostridioides difficile, UniProt P18177)
Construct: 6-His (C); purchased R&D Systems 6246-GT
Assay: biochemical
pIC50: −log10 of the molar value.
In this section, each of the compounds is paired with its reported pIC50.

Solved entries:
                                   compound        result
0  Cc1cc(C(=O)Nc2ccc(CN3C(=O)c4ccc(Cl)cc4NC(=O)[C@H]3Cc3ccccn3)cc2)no1 [Example 27g]  5.00 to 6.00
1  Cn1cnc(C(=O)c2ccc(CN3C(=O)c4ccc(Cl)cc4NC(=O)[C@H]3Cc3ccccn3)cc2)c1 [Example 31d]  6.00 to 7.00
2  O=C(c1ccccn1)c1ccc(CN2C(=O)c3ccc(Cl)cc3NC(=O)[C@H]2Cc2ccccn2)cc1F [Example 11f]        > 7.00
3  O=C(Nc1ccccn1)c1ccc(CN2Cc3ccc(Cl)cc3NC(=O)[C@H]2Cc2ccccn2)cc1 [Example 20a]  5.00 to 6.00
4  COc1ccc(NC(=O)c2ccc(CN3C(=O)c4ccc(Cl)cc4NC(=O)[C@H]3Cc3ccccn3)cc2F)nc1 [Example 6a]        > 7.00

Let's switch to this compound now.
Please give the measured pIC50 for this compound: O=C(Nc1ncccc1F)c1ccc(CN2C(=O)c3ccc(Cl)cc3NC(=O)[C@H]2Cc2ccccn2)cc1Cl [Example 5ac]
> 7.00

###

Target: recombinant glucosyltransferase domain of C. difficile Toxin B/TcdB (Clostridioides difficile, UniProt P18177)
Construct: 6-His (C); purchased R&D Systems 6246-GT
Experiment: biochemical
pIC50: −log10 of the molar value.
reported-endpoint: pIC50

>>> print(df.to_string())
                                   compound        result
0  Cc1cnc(NC(=O)c2ccc(CN3C(=O)c4ccc(Cl)cc4NC(=O)[C@H]3Cc3ccccn3)cc2Cl)s1        > 7.00
1  Cc1ccc(C[C@@H]2C(=O)Nc3cc(Cl)ccc3C(=O)N2Cc2ccc(C(=O)Nc3ccccn3)cc2)cc1  6.00 to 7.00
2  O=C(Nc1ccccn1)c1ccc(CN2C(=O)c3ccc(Cl)cc3NC(=O)[C@H]2Cc2ccccc2Cl)cc1        > 7.00

Please give the measured pIC50 for this compound: `Cc1noc(C)c1-c1cc(CN2C(=O)c3ccc(Cl)cc3NC(=O)[C@H]2Cc2ccccn2)ccc1C(=O)O`
5.00 to 6.00

Now this one: Cc1cc(C(=O)c2ccc(CN3C(=O)c4ccc(Cl)cc4NC(=O)[C@H]3Cc3ccccn3)cc2)c2nccn2c1 [Example 31e]
5.00 to 6.00

Now this one: Cc1ccc(C(=O)Nc2ccc(CN3C(=O)c4ccc(Cl)cc4NC(=O)[C@H]3Cc3ccccn3)cc2)nc1 [Example 26f]
> 7.00

Now this one: `COc1ccc(NC(=O)c2ccc(CN3C(=O)c4ccc(Cl)cc4NC(=O)[C@H]3C)cc2)nc1`
6.00 to 7.00

Now this one: `O=C(Nc1ccccn1)c1ccc(CN2C(=O)c3ccc(Cl)cc3NC(=O)[C@H]2Cc2ccc(F)cc2)cc1`
> 7.00

###

Molecular target: recombinant glucosyltransferase domain of C. difficile Toxin B/TcdB (Clostridioides difficile, UniProt P18177)
Construct: 6-His (C); purchased R&D Systems 6246-GT
Experiment: biochemical
pIC50: −log10 of the molar value.
reported-endpoint: pIC50

Solved entries:
                                   molecule        result
0  O=C(Nc1ccc(CN2C(=O)c3ccc(Cl)cc3NC(=O)[C@H]2Cc2ccccn2)cc1)c1ncccc1Cl [Example 26g]  5.00 to 6.00
1  Cc1ccc(NC(=O)c2ccc(CN3C(=O)c4ccc(Cl)cc4NC(=O)[C@H]3Cc3ccccn3)cc2C)nc1 [Example 4ck]        > 7.00
2  C[C@@H]1C(=O)Nc2cc(Cl)ccc2C(=O)N1Cc1ccc(C(=O)Nc2ccc(N3CCOCC3)cn2)cc1 [Example 4bf]  6.00 to 7.00
3  O=C1Nc2cc(Cl)ccc2C(=O)N(Cc2ccc3c(c2)CCN(c2ccccn2)C3=O)[C@@H]1Cc1ccccn1 [Example 37a]  5.00 to 6.00
4  COc1cnc(NC(=O)c2ccc(CN3C(=O)c4ccc(Cl)cc4NC(=O)[C@H]3Cc3ccccn3)cc2OC)nc1 [Example 5an]        > 7.00

Please give the measured pIC50 for this molecule: Cc1cc(NC(=O)c2ccc(CN3C(=O)c4ccc(Cl)cc4NC(=O)[C@H]3Cc3cccnc3)cc2)no1 [Example 4e]
> 7.00

###

Biological target: recombinant glucosyltransferase domain of C. difficile Toxin B/TcdB (Clostridioides difficile)
Construct: 6-His (C); purchased R&D Systems 6246-GT
Test: biochemical
pIC50: −log10 of the molar value. Structures can show the parent of a compound that is named as a salt.
reported-endpoint: pIC50

Solved entries:
>>> df
                                   compound        result
0  O=C1Nc2cc(Cl)ccc2C(=O)N(Cc2ccc(C(=O)N3CCCC3=O)cc2)[C@@H]1Cc1ccccn1 [Example 12b]  5.00 to 6.00
1  N#Cc1cccc(C[C@@H]2C(=O)Nc3cc(Cl)ccc3C(=O)N2Cc2ccc(C(=O)O)cc2)c1  5.00 to 6.00

Please give the measured pIC50 for this compound: `CC(C)c1ccc(NC(=O)c2ccc(CN3C(=O)c4ccc(Cl)cc4NC(=O)[C@H]3Cc3cccnc3)cc2)nc1`
> 7.00

Now this one: `O=C(O)c1ccc(CN2C(=O)c3ccc(Cl)cc3NC(=O)[C@H]2Cc2ccccn2)cc1-c1ccc(Cl)cc1`
6.00 to 7.00

Now this one: N#Cc1ccc2c(c1)NC(=O)[C@@H](Cc1cccnc1)N(Cc1ccc(C(=O)Nc3ccccn3)cc1)C2=O [Example 14a, Hydrochloride]
> 7.00

Now this one: Cc1ccc(NC(=O)c2ccc(CN3C(=O)c4ccc(NC(=O)c5ccccn5)cc4NC(=O)[C@H]3C)cc2)nc1 [Example 18d]
4.46 to 5.00

Now this one: `COc1ccc(NC(=O)c2ccc(CN3C(=O)c4ccc(Cl)cc4NC(=O)[C@H]3Cc3ccccn3)cc2OC)nc1`
> 7.00

Now this one: O=C(Nc1ccccn1)c1ccc(S(=O)(=O)N2Cc3ccc(Cl)cc3NC(=O)[C@@H]2Cc2ccccn2)cc1 [Example 19c]
6.00 to 7.00
